# Type: physicochemical
# Condition info: n-octanol/sodium phosphate buffer, pH 7.4
Readout: logD

INSERT INTO measurements (compound, data_value) VALUES
  ('CC(Oc1cc(-c2ncccn2)nc2ccccc12)C(=O)N(C)c1ccccc1 (centres unmarked) [Ligand 21]', 2.48),
  ('CC(Oc1cc(-c2ccccn2)nc2ncccc12)C(=O)N(C)c1ccccc1 (centres unmarked) [Ligand 20]', 2.48);

---

# System: rat brain TSPO (Rattus norvegicus)
pKi: −log10 of the molar value.
The entries below come with measured pKi values attached.
Readout: pKi

INSERT INTO assay_data (molecule, op, data_value) VALUES
  ('CC(Oc1cc(-c2ccccn2)nc2ncccc12)C(=O)N(C)c1ccccc1 (stereo not drawn)', '=', 9.30),
  ('CC(C)N1CCC(Oc2cc(-c3ccccn3)nc3ccccc23)C1=O (stereo not drawn)', '<', 6.00),
  ('CC(Oc1cc(-n2cccc2)nc2ccccc12)C(=O)N(C)c1ccccc1 (stereo not drawn)', '=', 9.66),
  ('CC(Oc1cc(-c2ccccn2)nc2ccccc12)C(=O)N(C)c1ccc(F)cc1 (stereo not drawn)', '=', 10.05),
  ('CC(Oc1cc(-c2ccccn2)nc2ccccc12)C(=O)N(C)C(C)C (stereo not drawn)', '=', 9.12),
  ('CN1C(=O)C(Oc2cc(-c3ccccn3)nc3ccccc23)CC1(C)C (stereo not drawn)', '<', 6.00),
  ('CC(On1c(-c2ccccn2)nc2ccccc21)C(=O)N(C)C(C)C (stereo not drawn)', '<', 6.00),
  ('CC(Oc1cc(-c2ncccn2)nc2ccccc12)C(=O)N(C)c1ccccc1 (stereo not drawn)', '=', 9.28),
  ('COc1cc(OC(C)C(=O)N(C)c2ccccc2)c2cccnc2n1 (stereo not drawn)', '=', 8.11);

---

# System: rat brain TSPO (Rattus norvegicus, UniProt P16257)
# Format: binding
# Condition info: pKi minus clogD
The entries below come with measured LipE values attached.
Readout: LipE

INSERT INTO assay_data (compound, system, op, data_value) VALUES
  ('CN1C(=O)C(Oc2cc(-c3ccccn3)nc3ccccc23)CC1(C)C (stereo not drawn)', 'rat brain TSPO (Rattus norvegicus, UniProt P16257)', '<', 3.93),
  ('CC(Oc1cc(-c2ccccn2)nc2ccccc12)C(=O)N(C)c1ccc(F)cc1 (stereo not drawn)', 'rat brain TSPO (Rattus norvegicus, UniProt P16257)', '=', 5.80),
  ('CC(Oc1cc(-c2ccccn2)nc2ncccc12)C(=O)N(C)c1ccccc1 (stereo not drawn)', 'rat brain TSPO (Rattus norvegicus, UniProt P16257)', '=', 6.5),
  ('CC(Oc1cc(-n2cccc2)nc2ccccc12)C(=O)N(C)c1ccccc1 (stereo not drawn)', 'rat brain TSPO (Rattus norvegicus, UniProt P16257)', '=', 6.13),
  ('CC(C)N1CCC(Oc2cc(-c3ccccn3)nc3ccccc23)C1=O (stereo not drawn)', 'rat brain TSPO (Rattus norvegicus, UniProt P16257)', '<', 3.36),
  ('COc1cc(OC(C)C(=O)N(C)c2ccccc2)c2cccnc2n1 (stereo not drawn)', 'rat brain TSPO (Rattus norvegicus, UniProt P16257)', '=', 6.09),
  ('CC(On1c(-c2ccccn2)nc2ccccc21)C(=O)N(C)C(C)C (stereo not drawn)', 'rat brain TSPO (Rattus norvegicus, UniProt P16257)', '<', 2.47),
  ('CC(Oc1cc(-c2ccccn2)nc2ccccc12)C(=O)N(C)C(C)C (stereo not drawn)', 'rat brain TSPO (Rattus norvegicus, UniProt P16257)', '=', 6.58),
  ('CC(Oc1cc(-c2ncccn2)nc2ccccc12)C(=O)N(C)c1ccccc1 (stereo not drawn)', 'rat brain TSPO (Rattus norvegicus, UniProt P16257)', '=', 6.6);
